Numbers sourced from patent US12139471B2.

Would you mind telling me the reported IC50 of each entry?
# SYSTEM TESTED: NLRP3 inflammasome (Homo sapiens, UniProt Q96P20)
# Construct: host or cells: THP-1 cells, PMA-differentiated
# Sequence (Q96P20 whole entry): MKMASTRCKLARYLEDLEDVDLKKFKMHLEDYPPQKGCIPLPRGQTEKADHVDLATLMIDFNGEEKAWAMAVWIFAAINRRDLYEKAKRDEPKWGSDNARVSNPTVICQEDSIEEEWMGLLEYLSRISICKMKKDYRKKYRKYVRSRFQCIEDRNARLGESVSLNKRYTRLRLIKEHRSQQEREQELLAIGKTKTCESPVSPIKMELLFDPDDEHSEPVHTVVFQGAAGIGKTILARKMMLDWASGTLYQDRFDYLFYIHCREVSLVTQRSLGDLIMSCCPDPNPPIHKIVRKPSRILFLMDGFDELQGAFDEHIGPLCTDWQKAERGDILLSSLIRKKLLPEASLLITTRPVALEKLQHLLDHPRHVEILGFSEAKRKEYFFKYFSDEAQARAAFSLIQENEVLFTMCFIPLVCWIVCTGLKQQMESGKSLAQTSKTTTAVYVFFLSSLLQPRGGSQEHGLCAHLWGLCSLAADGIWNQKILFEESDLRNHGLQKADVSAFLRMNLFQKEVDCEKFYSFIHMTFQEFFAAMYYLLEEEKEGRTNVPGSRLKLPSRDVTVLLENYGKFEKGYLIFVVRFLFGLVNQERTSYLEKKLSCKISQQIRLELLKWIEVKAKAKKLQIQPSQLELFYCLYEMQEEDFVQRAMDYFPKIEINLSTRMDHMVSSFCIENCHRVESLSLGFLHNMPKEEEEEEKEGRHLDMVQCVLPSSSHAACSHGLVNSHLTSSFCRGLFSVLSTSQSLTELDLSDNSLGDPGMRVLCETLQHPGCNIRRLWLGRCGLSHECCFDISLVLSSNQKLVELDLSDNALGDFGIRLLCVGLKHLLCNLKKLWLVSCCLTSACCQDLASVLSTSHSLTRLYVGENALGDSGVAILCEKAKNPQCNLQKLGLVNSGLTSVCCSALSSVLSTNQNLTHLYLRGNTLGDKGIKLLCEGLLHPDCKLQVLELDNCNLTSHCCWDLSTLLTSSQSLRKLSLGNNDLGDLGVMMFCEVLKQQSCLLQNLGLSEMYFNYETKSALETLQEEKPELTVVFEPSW
# TEST METHOD NOTES: IL-1β secretion assay (nigericin-activated, PMA-differentiated THP-1 cells, HTRF)
# Type: cell-based
# REPORTED CONDITIONS: PMA-differentiated THP-1 cells; compound 1 hour, then 15 μM nigericin, 3 hours; IL-1β by HTRF; read-out: IL-1β IC50
Quick note: give the figure in nM, leave out the unit.

q: Need IC50 of `OCCNc1ccc(-c2c(O)cc(C(F)(F)F)cc2Cl)nn1` , thanks.
a: 381

q: Need IC50 of `Cc1cc(C(F)(F)F)cc(O)c1-c1cc(C(F)(F)F)c(N[C@H]2C[C@@](C)(O)C2)nn1` , thanks.
a: 8.3

q: Need IC50 of Cc1cc(C(F)(F)F)cc(O)c1-c1ccc(NC[C@H](O)C(C)C)nn1 (single isomer, unassigned) [Ex 90b] , thanks.
a: 115

q: Need IC50 of `Cc1cc(C(F)(F)F)cc(O)c1-c1ccc(N[C@@H]2CCC(=O)NC2)nn1` , thanks.
a: 65.8

q: Need IC50 of `Cc1cc(C(F)(F)F)cc(O)c1-c1ccc(NCc2ccccn2)nn1` , thanks.
a: 288

* * *

# SYSTEM TESTED: NLRP3 inflammasome (Homo sapiens, UniProt Q96P20)
# Construct: host or cells: THP-1 cells, PMA-differentiated
# TEST METHOD NOTES: IL-1β secretion assay (nigericin-activated, PMA-differentiated THP-1 cells, HTRF)
# Type: cell-based
# REPORTED CONDITIONS: PMA-differentiated THP-1 cells; compound 1 hour, then 15 μM nigericin, 3 hours; IL-1β by HTRF; read-out: IL-1β IC50
RESULT TYPE: IC50 (nM)
Quick note: give the figure in nM, leave out the unit.

q: Need IC50 of `C[C@]1(O)C[C@@H](Nc2cc(C(F)(F)F)c(-c3ccc(C(F)(F)F)cc3O)nn2)C1` , thanks.
a: 187

q: Need IC50 of `Cc1cc(NCC(C)(C)O)nnc1-c1c(C)cc(C(F)(F)F)cc1O` , thanks.
a: 154

q: Need IC50 of `CCN1CCC[C@H]1CNc1ccc(-c2c(C)cc(C(F)(F)F)cc2O)nn1` , thanks.
a: 24.1

q: Need IC50 of Cc1cc(C(F)(F)F)cc(O)c1-c1ccc(NC[C@@H]2CCCCN2CCO)nn1 (single isomer, unassigned) [Ex 84b] , thanks.
a: 53.3

q: Need IC50 of `Cc1cc(C(F)(F)F)cc(O)c1-c1ccc(N[C@@H]2CCCN(C)C2=O)nn1` , thanks.
a: 35.9

q: Need IC50 of `Cc1cc(C(F)(F)F)cc(O)c1-c1ccc(NCC(O)(C(F)(F)F)C(F)(F)F)nn1` , thanks.
a: 349

q: Need IC50 of `Cc1cc(N[C@H]2C[C@@](C)(O)C2)nnc1-c1ccc(Cl)cc1O` , thanks.
a: 89.3

q: Need IC50 of `Cc1cc(C)c(-c2ccc(NCCc3ccc(S(N)(=O)=O)cc3)nn2)c(O)c1` , thanks.
a: 136

* * *

# SYSTEM TESTED: NLRP3 inflammasome (Homo sapiens, UniProt Q96P20)
# Construct: host or cells: THP-1 cells, PMA-differentiated
# TEST METHOD NOTES: IL-1β secretion assay (nigericin-activated, PMA-differentiated THP-1 cells, HTRF)
# Format: cell-based
# REPORTED CONDITIONS: IL-1β IC50, PMA-differentiated THP-1 cells; compound 1 hour, then 15 μM nigericin, 3 hours; IL-1β by HTRF
RESULT TYPE: pIC50
Would you please state pIC50, meaning minus log10 of the concentration in mol/L, as a bare number?

q: Need pIC50 of Cc1cc(C(F)(F)F)cc(O)c1-c1ccc(NC2CCC3CCC2N3CCO)nn1 (single isomer, unassigned) [Ex 86b] , thanks.
a: 8.74

q: Need pIC50 of Cc1cc(C(F)(F)F)cc(O)c1-c1ccc(NC2CCC3CCC2N3C)nn1 (single isomer, unassigned) [Ex 85b] , thanks.
a: 8.89
